Would you mind telling me the reported kon of each entry?
# assay target: T1, human serum albumin (human, UniProt P02768 25-609)
# T1 construct: In the mutant screen wild type HSA came from medium of transfected HeLa cells; also called HSA; wild type HSA
# T1 sequence (P02768 25-609 limits assumed): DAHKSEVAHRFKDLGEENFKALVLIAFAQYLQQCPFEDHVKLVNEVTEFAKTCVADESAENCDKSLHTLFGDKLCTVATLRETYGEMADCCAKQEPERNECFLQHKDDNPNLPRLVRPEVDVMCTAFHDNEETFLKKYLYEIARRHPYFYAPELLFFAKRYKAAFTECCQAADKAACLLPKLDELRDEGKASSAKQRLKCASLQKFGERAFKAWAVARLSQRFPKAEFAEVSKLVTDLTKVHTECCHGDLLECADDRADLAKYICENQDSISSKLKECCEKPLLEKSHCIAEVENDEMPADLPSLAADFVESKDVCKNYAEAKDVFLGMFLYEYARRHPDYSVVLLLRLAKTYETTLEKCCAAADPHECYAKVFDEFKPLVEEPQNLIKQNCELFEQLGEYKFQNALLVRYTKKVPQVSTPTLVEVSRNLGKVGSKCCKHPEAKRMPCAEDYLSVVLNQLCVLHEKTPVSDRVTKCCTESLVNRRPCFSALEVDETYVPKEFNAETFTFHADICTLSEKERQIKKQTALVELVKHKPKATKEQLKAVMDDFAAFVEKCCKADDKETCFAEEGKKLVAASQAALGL
# protocol details: SPR, HSA immobilised;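 further: nanobody analytes injected as dilution series across three log units over CM5 chip with amine-coupled antigen, kinetics fitted by 1:1 Langmuir model, optionally with mass transfer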

Returns the measured kon for the input binder. Input: H4 (VHH) VHH: HVQLVESGGGLVQTGGSLRLACAASGRAFSTYAMGWFRQAPGKEREFVASINRSGSSTYYADSVKGRFTISRDNGKDTVYLQMNRLIPEDTAVYYCAADSEGVGFRNMLEYDYWGQGTQVTVSS 992000 M⁻¹ s⁻¹

Query (binder): H20 (VHH) VHH: EVQLVESGGGLVQAGGSLRLSCTASGPKDTPYTMGWFRQVPGKEREFVASVLWSGINTDYADSVKGRFAISRNNAKNTMYLQMNSLKPEDTAVYYCAAGYGLGFYRTVSQYDYWGHGTQVTVSS ; field requested: kon 154000 M⁻¹ s⁻¹

I have this binder here, H14 (VHH) VHH: HVQLVESGGGLVQAGGSLRLSCTASGRTFTPYTMGWFRQAPGKEREFVASILWSGNNRDYADSVKDRFAISRDNAKNTAYLQMNSLKPEDTAVYYCAAGDGLGFYRSVNQYDYWGQGTQVTVSS , and I need its recorded kon. 250000 M⁻¹ s⁻¹

Using the record for H18 (VHH) VHH: EVQLVESGGGLVQAGGSLRLSCTASGPKDTPYTMGWFRQVPGKEREFVASVLWSGINTDYADSVKGRFAISRNNAKNTMYLQMNSLKPEDTAVYYCAAGYGLGFYRSISQYDYWGHGTQVTVSS , report its kon. 171000 M⁻¹ s⁻¹
